Reported PDI is given for each of the following compounds.
Test: Diameter and PDI from DLS measurements of mRNA nanoparticles with lipid amines
Format: physicochemical
Conditions: CFTR mRNA nanoparticle with lipid amine
Structures can show the parent of a compound that is named as a salt.
When you answer, write just the number.

Solved cases (8 shown):
# compound, PDI
data = [
    ("CC(C)CCC[C@@H](C)[C@H]1CC[C@H]2[C@@H]3CC=C4C[C@@H](OC(=O)CN(CCCCCCCCN)C(=O)[C@@H](N)CCCCN)CC[C@]4(C)[C@H]3CC[C@]12C.Cl.Cl.Cl [SA130]", 0.18),
    ("CC(C)CCC[C@@H](C)[C@H]1CC[C@H]2[C@@H]3CC=C4C[C@@H](OC(=O)N(CCCCNCC(F)(F)CN)CC(F)(F)CN)CC[C@]4(C)[C@H]3CC[C@]12C [SA79, trihydrochloride]", 0.13),
    ("CC(C)CCC[C@@H](C)[C@H]1CC[C@H]2[C@@H]3CC=C4C[C@@H](OC(=O)N(CCCCNCC(F)CN)CC(F)CN)CC[C@]4(C)[C@H]3CC[C@]12C (stereo partly drawn) [SA87, trihydrochloride]", 0.1),
    ("CC(C)CCC[C@@H](C)[C@H]1CC[C@H]2[C@@H]3CC=C4C[C@@H](OC(=O)[C@H](C)N(CCCN)CCCCNCCCN)CC[C@]4(C)[C@H]3CC[C@]12C [SA73, trihydrochloride]", 0.16),
    ("CC(C)CCC[C@@H](C)[C@H]1CC[C@H]2[C@@H]3CC=C4C[C@@H](SSCCC(=O)N(CCCCCCCC(C)N)CCC(C)N)CC[C@]4(C)[C@H]3CC[C@]12C (stereo partly drawn) [SA172, dihydrochloride]", 0.13),
    ("CC[C@H](CC[C@@H](C)[C@H]1CC[C@H]2[C@@H]3CC=C4C[C@@H](OC(=O)N(CCCCNCCC(N)(CC)CC)CCC(N)(CC)CC)CC[C@]4(C)[C@H]3CC[C@]12C)C(C)C [SA183, trihydrochloride]", 0.14),
    ("CC(C)CCC[C@@H](C)[C@H]1CC[C@H]2[C@@H]3CC=C4C[C@@H](OC(=O)N(CCCCCCCCN(C)C)CCCN(C)C)CC[C@]4(C)[C@H]3CC[C@]12C [SA64]", 0.09),
    ("CC(C)CCC[C@@H](C)[C@H]1CC[C@H]2[C@@H]3CC=C4C[C@@H](OC(=O)N(CCCCNCC(C)CN)CC(C)CN)CC[C@]4(C)[C@H]3CC[C@]12C (stereo partly drawn) [SA75, trihydrochloride]", 0.11),
]

Input: Please look up its PDI: CCC(N)CCNCCCCN(CCC(N)CC)C(=O)O[C@H]1CC[C@@]2(C)C(=CC[C@H]3[C@@H]4CC[C@H]([C@H](C)CCCC(C)C)[C@@]4(C)CC[C@@H]32)C1.Cl.Cl.Cl (stereo partly drawn) [SA127]
Output: 0.12
